- assay_method_text: Drug repurposing screens with cells derived from glioblastoma tumor samples (AID 1345199); note: % is set by controls: 0 for no effect and ±100 for the full control effect
- experimental_context: GBM patient neurospheres viability, ATP luminescence, 48 h; at 46.1 µM (top of the series); tumour line C
Records with an inconclusive call do not appear.
measurement_type: activity, negative = cell killing (%)

[[record]]
compound = "Cc1c[nH]c2ccccc12"
assay_value = -16.3

[[record]]
compound = "Cc1nc(-c2ccc(Cl)cc2)oc1COC(C)(C)C(=O)O"
assay_value = -9.1

[[record]]
compound = "C#C[C@]1(O)CC[C@H]2[C@@H]3CCC4=Cc5oncc5C[C@]4(C)[C@H]3CC[C@@]21C"
assay_value = -28.8

[[record]]
compound = "CC(C)Cn1cnc2c1c(=O)n(C)c(=O)n2C"
assay_value = -1.11

[[record]]
compound = "COc1cc([C@H]2Oc3cc([C@H]4Oc5cc(O)cc(O)c5C(=O)[C@@H]4O)ccc3O[C@@H]2CO)ccc1O"
assay_value = -7.07

[[record]]
compound = "COc1ccc(-c2cc(C(F)F)nn2-c2ccc(S(N)(=O)=O)cc2)cc1F"
assay_value = 2.98

[[record]]
compound = "C#C[C@]1(O)CC[C@H]2[C@@H]3CCc4cc(OC)ccc4[C@H]3CC[C@@]21C"
assay_value = -5.96

[[record]]
compound = "N#CCC(=O)NN"
assay_value = -7.01

[[record]]
compound = "O=C(Oc1cccc2cccnc12)c1ccccc1"
assay_value = -9.14

[[record]]
compound = "CCN[C@@H]1C[C@H](N)[C@@H](OC2OC(CN)=CCC2N)[C@H](O)[C@H]1O[C@H]1OC[C@](C)(O)[C@H](NC)[C@H]1O (stereo not given in full)"
assay_value = -13.2

[[record]]
compound = "CC(=O)Nc1ccc(OCC(O)CNC(C)C)cc1 (stereo not given)"
assay_value = -12.1

[[record]]
compound = "CCc1oc2ccccc2c1C(=O)c1cc(I)c(O)c(I)c1"
assay_value = -3.24

[[record]]
compound = "FC(F)(F)C(F)(F)C(F)(F)C(F)(F)C(F)(F)C(F)(F)C(F)(F)C(F)(F)Br"
assay_value = 5.77

[[record]]
compound = "Cc1cc(NS(=O)(=O)c2ccc(N)cc2)nc(C)n1"
assay_value = -10.5

[[record]]
compound = "OC[C@H]1O[C@@H]2O[C@H]3[C@H](O)[C@@H](O)[C@@H](O[C@H]4[C@H](O)[C@@H](O)[C@@H](O[C@H]5[C@H](O)[C@@H](O)[C@@H](O[C@H]6[C@H](O)[C@@H](O)[C@@H](O[C@H]7[C@H](O)[C@@H](O)[C@@H](O[C@H]8[C@H](O)[C@@H](O)[C@@H](O[C@H]1[C@H](O)[C@H]2O)O[C@@H]8CO)O[C@@H]7CO)O[C@@H]6CO)O[C@@H]5CO)O[C@@H]4CO)O[C@@H]3CO"
assay_value = -14.8

[[record]]
compound = "COP(=O)(OC)OC(c1ccc(Cl)cc1)P(=O)(OC)OC (stereo not given)"
assay_value = -24.8

[[record]]
compound = "Cc1ncc(CO)c(C=O)c1O"
assay_value = 7.46

[[record]]
compound = "Nc1nc(N)c(-c2ccccc2)s1"
assay_value = -25.4

[[record]]
compound = "COc1ccc(S(=O)(=O)N2c3ccc(Cl)cc3[C@@](O)(c3ccccc3Cl)[C@H]2C(=O)N2CCC[C@@H]2C(N)=O)cc1OC"
assay_value = -27

[[record]]
compound = "CCOc1ccccc1OCCN[C@H](C)Cc1ccc(OC)c(S(N)(=O)=O)c1"
assay_value = -16.6

[[record]]
compound = "CCCCOC(=O)CC(CC(=O)OCCCC)(OC(C)=O)C(=O)OCCCC"
assay_value = -12.4

[[record]]
compound = "CC(C)=CCOc1ccc(/C=C/C(=O)c2ccc(OCC=C(C)C)cc2OCC(=O)O)cc1"
assay_value = -4.09

[[record]]
compound = "CC(=O)NCCCCCC(=O)O"
assay_value = -20.2

[[record]]
compound = "OCCOCCN1CCN(C2=Nc3ccccc3Sc3ccccc32)CC1"
assay_value = 1.64

[[record]]
compound = "CC(=O)NO"
assay_value = 11.5

[[record]]
compound = "Cc1cn([C@H]2C[C@H](F)[C@@H](CO)O2)c(=O)[nH]c1=O"
assay_value = -27

[[record]]
compound = "Cc1cccc(C)c1NC(=O)c1ccccc1C(=O)O"
assay_value = -17.8

[[record]]
compound = "COc1ccc(/C=N/NC(=O)c2ccncc2)cc1OC"
assay_value = -25

[[record]]
compound = "O=C(CCCN1CC=C(n2c(=O)[nH]c3ccccc32)CC1)c1ccc(F)cc1"
assay_value = -24.6

[[record]]
compound = "O=S(c1cc(Cl)cc(Cl)c1O)c1cc(Cl)cc(Cl)c1O"
assay_value = -26.7

[[record]]
compound = "CCOc1cc(OCC)c(C(=O)CCC(=O)O)cc1OCC"
assay_value = -10.2

[[record]]
compound = "O=C(O)C(Cc1cc(I)c(O)c(I)c1)c1ccccc1 (stereo not given)"
assay_value = -25.5

[[record]]
compound = "Cc1ccccc1OCC(O)CO (stereo not given)"
assay_value = -19.6

[[record]]
compound = "CCNC(=O)/C=C/c1cccc(Br)c1"
assay_value = -17.6

[[record]]
compound = "CC(=O)Nc1ccc(CC(=O)O)cc1"
assay_value = 3.56

[[record]]
compound = "CCc1oc2ccccc2c1C(=O)c1cc(Br)c(O)c(Br)c1"
assay_value = -6.19

[[record]]
compound = "COc1cc(O)c(C(=O)c2ccccc2)cc1S(=O)(=O)O"
assay_value = 6.07

[[record]]
compound = "CC(C)[C@@H]1CC[C@@H](C)CC1=O"
assay_value = -8.42

[[record]]
compound = "CCN(CC)CCNC(=O)COc1ccc(OC)cc1"
assay_value = -17.2

[[record]]
compound = "CN(C)CCC[C@@]1(c2ccc(F)cc2)OCc2cc(C#N)ccc21"
assay_value = 2.89

[[record]]
compound = "CN1CCN(c2cc3c(cc2F)c(=O)c(C(=O)O)cn3-c2ccc(F)cc2)CC1"
assay_value = 5.61

[[record]]
compound = "CCCCNC(=O)NS(=O)(=O)c1ccc(N)cc1"
assay_value = -25.7

[[record]]
compound = "OC1C(O)C(O)C(O)C(O)C1O (stereo not given)"
assay_value = -1.34

[[record]]
compound = "O=C1C(O)=C(O)C(=O)C(O)=C1O"
assay_value = 12.8

[[record]]
compound = "CC(C)n1c(/C=C/[C@@H](O)C[C@@H](O)CC(=O)O)c(-c2ccc(F)cc2)c2ccccc21"
assay_value = -19.1

[[record]]
compound = "CCCCCCCCCCCCCC(=O)OC(C)C"
assay_value = 3.73

[[record]]
compound = "O=C(O)CCc1nc2ccccc2[nH]1"
assay_value = -13.5

[[record]]
compound = "O=C(Nc1cccc(C2=NCCN2)c1)Nc1cccc(C2=NCCN2)c1"
assay_value = -6.35

[[record]]
compound = "CC(=O)Oc1ccc(C)cc1"
assay_value = -10.6

[[record]]
compound = "CO[C@]12C[C@@H](COC(=O)c3cncc(Br)c3)CN(C)[C@@H]1Cc1cn(C)c3cccc2c13"
assay_value = -7.09

